assay: Amount of Nabilone solubilized by cyclodextrin solutions, determined by extraction of the drug from lyophilized complexes (HPLC); settings: water, thermodynamic from solid, Nabilone solubility in water, H2O, no cyclodextrin
OBSERVED_PROPERTY: solubility

Summary for this compound, CCCCCCC(C)(C)c1cc(O)c2c(c1)OC(C)(C)C1CCC(=O)CC21 (stereo not shown) : solubility is < 0.5 µg/mL
